Where these numbers come from: PubChem BioAssay (NCI)

# Test Name: NCI Yeast Anticancer Drug Screen. Data for the sgs1 mgt1 strain (AID 161);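 further: 0% = growth of cultures given vehicle only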
# Applied Conditions: S. cerevisiae sgs1 mgt1 strain, at 50.0 µM, hits give high values
This is part of a sample that, as a whole, favours compounds with a hit. Of some 79,000 tested, about 15% had one in any assay.
Measured Property: growth inhibition (%)
Enter your answer as a number in %; do not include the unit.

[
  {
    "Molecule": "COc1ccc2c(c1)C1Oc3ccccc3CC1(O)CO2 (stereo unspecified)",
    "Units": "%",
    "Recorded Number": 21.3
  },
  {
    "Molecule": "COc1cc(C)cc(C(=O)C2=NNCC2c2ccccc2)c1O (stereo unspecified)",
    "Units": "%",
    "Recorded Number": 26.8
  },
  {
    "Molecule": "CC(C)(C)C1CCC2c3c([nH]c4ccccc34)C3C(=O)N(c4ccc(Cl)cc4)C(=O)C3C2C1 (stereo unspecified)",
    "Units": "%",
    "Recorded Number": -6.1
  },
  {
    "Molecule": "CC(=O)Nc1ccc(C(N)=S)cc1",
    "Units": "%",
    "Recorded Number": 3.25
  },
  {
    "Molecule": "CNCCC(=O)C1CCC(OC)CC1 (stereo unspecified)",
    "Units": "%",
    "Recorded Number": 2.1
  }
]

Kindly review the next molecule as well.
// recorded growth inhibition for O=c1c2ccccc2on1CN1CCN(Cn2oc3ccccc3c2=O)CC1 : -8

###

# Test Name: NCI Yeast Anticancer Drug Screen. Data for the mlh1 rad18 strain (AID 175)
# Applied Conditions: S. cerevisiae mlh1 rad18 strain growth inhibition; at 50.0 µM; hits give high values
Compounds without any hit were thinned out: in the full panel of roughly 79,000, 15% have a hit.
Measured Property: growth inhibition (%)
Enter your answer as a number in %; do not include the unit.

// recorded growth inhibition for O=C(O)[C@@H]1[C@@H]2C[C@@H]3[C@H](OC(=O)[C@@H]31)[C@@H]2O : -41.4

// recorded growth inhibition for CCCCCCCCC1CO1 (centres undefined) : -6.85

// recorded growth inhibition for CCOC(=O)CSc1nc(N)c2c(-c3ccccc3)c3c(nc2n1)CCCC3 : 17.7

// recorded growth inhibition for N#Cc1cc2c(cc1C#N)SCCSCCCSCCS2 : -24.8

###

# Test Name: NCI Yeast Anticancer Drug Screen. Data for the mlh1 rad18 strain (AID 175)
# Applied Conditions: S. cerevisiae mlh1 rad18 strain growth inhibition; at 50.0 µM; hits give high values
This is part of a sample that, as a whole, favours compounds with a hit. Of some 79,000 tested, about 15% had one in any assay. Calls of active or inactive are those of the source. Rule as the data show it: active = growth inhibition above about 70%; inactive = the rest.
// reported growth inhibition per item

In the examples that follow, each entry is paired with its recorded growth inhibition.
[
  {
    "Compound": "O=C1C(Cl)=C(SCc2ccccc2)C(=O)c2ccccc21",
    "Measured Property": "growth inhibition",
    "Result": "42.9% (inactive)"
  },
  {
    "Compound": "CC(C)CC(N)C(=O)OCN1C(=O)C2C3C=CC(C2C1=O)C1C2C(=O)N(COC(=O)C(N)CC(C)C)C(=O)C2C31 (stereo unspecified)",
    "Measured Property": "growth inhibition",
    "Result": "9.7% (inactive)"
  },
  {
    "Compound": "NC(=O)C1CC(I)C2CC1C(=O)O2 (stereo unspecified)",
    "Measured Property": "growth inhibition",
    "Result": "-6.5% (inactive)"
  },
  {
    "Compound": "Clc1ccc2c(c1)Cc1ccccc1-2",
    "Measured Property": "growth inhibition",
    "Result": "22.2% (inactive)"
  },
  {
    "Compound": "CSCCC(NC(=O)c1c(Cl)ccc(Cl)c1Cl)C(=O)O (stereo unspecified)",
    "Measured Property": "growth inhibition",
    "Result": "-16.4% (inactive)"
  }
]

// recorded growth inhibition for Cc1cc(-c2ccc(Cl)cc2)c(C#N)c(=S)n1C1OC(CO)C(O)C(O)C1O (stereo unspecified) : 2.8% (inactive)

// recorded growth inhibition for COC(=O)c1cccc(Cl)c1C(=O)c1ccc(C)cc1C : 11.4% (inactive)

// recorded growth inhibition for CC(=O)Nc1c(C(=N)C#N)ncn1CCO : 5.5% (inactive)

// recorded growth inhibition for O=C(O)c1c[n+]([O-])ccc1Cl : 27.1% (inactive)

// recorded growth inhibition for CCCC[n+]1cccc(C(N)=O)c1 : -2.15% (inactive)

// recorded growth inhibition for Cc1ccc(OC(=O)c2cccs2)cc1 : 22.1% (inactive)

// recorded growth inhibition for O=C(NC/C=C/Br)NC1CCNc2ccccc21 (stereo unspecified) : 23% (inactive)

// recorded growth inhibition for O/N=C/c1ccccn1 : 0% (inactive)

// recorded growth inhibition for C=CC12c3c4cc(OC)cc3OC1C(O)CCC2CC4 (stereo unspecified) : 5.65% (inactive)

// recorded growth inhibition for C[N+]1=CN(c2ccc(Cl)cc2)Cc2cc(Cl)ccc21 : 34% (inactive)

// recorded growth inhibition for O=C(/C=C/c1ccccc1)OCCCl : -7.35% (inactive)
